// reported log10(DC50) per item
TEST TARGET: STAT6 (Homo sapiens (Human), UniProt P42226)
Sequence (P42226 whole entry): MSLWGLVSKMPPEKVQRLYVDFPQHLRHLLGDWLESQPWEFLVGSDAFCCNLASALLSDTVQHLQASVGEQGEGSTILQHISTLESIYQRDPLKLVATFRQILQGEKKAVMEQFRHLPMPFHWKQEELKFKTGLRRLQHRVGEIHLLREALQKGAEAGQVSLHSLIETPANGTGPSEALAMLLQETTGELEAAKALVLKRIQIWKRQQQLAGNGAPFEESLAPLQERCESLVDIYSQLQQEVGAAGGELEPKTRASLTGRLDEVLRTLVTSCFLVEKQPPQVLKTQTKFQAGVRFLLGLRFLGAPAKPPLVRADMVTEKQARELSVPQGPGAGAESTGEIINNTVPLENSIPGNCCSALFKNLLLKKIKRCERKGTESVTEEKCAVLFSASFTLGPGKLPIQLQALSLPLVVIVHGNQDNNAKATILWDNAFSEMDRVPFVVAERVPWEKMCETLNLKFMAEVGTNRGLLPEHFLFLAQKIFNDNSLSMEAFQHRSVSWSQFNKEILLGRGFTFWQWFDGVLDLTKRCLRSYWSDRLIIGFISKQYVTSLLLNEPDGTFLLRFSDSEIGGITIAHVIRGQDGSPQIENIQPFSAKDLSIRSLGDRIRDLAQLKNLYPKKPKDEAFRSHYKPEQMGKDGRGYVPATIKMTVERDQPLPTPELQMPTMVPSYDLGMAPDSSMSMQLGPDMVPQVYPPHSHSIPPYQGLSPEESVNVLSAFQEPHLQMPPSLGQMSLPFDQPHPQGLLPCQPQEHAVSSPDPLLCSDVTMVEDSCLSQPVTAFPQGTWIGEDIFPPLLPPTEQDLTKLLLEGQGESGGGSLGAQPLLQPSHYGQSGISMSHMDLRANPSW
METHOD DESCRIPTION: STAT6 degrader assay (HiBiT, HeLa LgBiT clone 4.14)
Format: cell-based
RUN CONDITIONS: HeLa LgBiT clone 4.14, 4-24 h; geometric mean; given for compounds with >80% Emax; read-out: STAT6 degradation DC50
REPORTED ENDPOINT: log10(DC50) (log10 of the value in nM)

# COMPOUND, REPORTED
data = [
    ("CNc1ccc(-c2ccnc3c2cc([C@H](C)N2CCC(c4ccc(C(=O)N5CCC(CN6CCN(Cc7ccc8c(c7)n(C)c(=O)n8[C@@H]7CCC(=O)NC7=O)C[C@@H]6C)CC5)cc4)CC2)n3C)cn1 (single isomer, unassigned) [Example 3h3]", 0.04),
    ("Cc1cc(C(=O)N(C)c2ccc(C3CCN(Cc4ccc5c(c4)n(C)c(=O)n5C4CCC(=O)NC4=O)CC3)cc2)cc(F)c1C1=CCN(Cc2cc3c(-c4ccc(N)nc4)ccnc3n2C)CC1 (stereo not drawn) [Example 3h39]", -1.00),
    ("C[C@H]1CN(Cc2cc3c(cc2F)n([C@H]2CCC(=O)NC2=O)c(=O)n3C2CC2)CCN1CC1CCN(C(=O)c2ccc(C3CCN([C@@H](C)c4cc5c(-c6ccc(N)nc6)ccnc5n4C)CC3)cc2)CC1 (single isomer, unassigned) [Example 3e62]", -0.10),
    ("Cc1cc(C(=O)N2CCC(CN3CCN(Cc4ccc5c(c4)n(C)c(=O)n5C4CCC(=O)NC4=O)CC3)CC2)cc(C)c1C1=CCN(Cc2cc3c(-c4ccc(N)nc4)ccnc3n2C)CC1 (stereo not drawn) [Example 3e12]", -0.05),
    ("C[C@@H](c1cc2c(-c3ccc(N)nc3)ccnc2n1C)N1CCC(c2ccc(C(=O)N3CCC(CN4CCN(Cc5ccc6c(c5)n(CC(F)(F)F)c(=O)n6C5CCC(=O)NC5=O)CC4)CC3)cc2)CC1 (stereo partly drawn) [Example 3e25]", 0.60),
    ("CNc1ccc(-c2ccnc3c2cc([C@H](C)N2CC=C(c4c(C)cc(C(=O)N5CCC(CN6CCN(Cc7cc8c(cc7F)N(C7CCC(=O)NC7=O)C(=O)C87CC7)CC6)CC5)cc4F)CC2)n3C)cn1 (stereo partly drawn) [Example 3h34]", 0.74),
    ("C[C@H]1CN(Cc2ccc3c(c2)C2(CC2)C(=O)N3C2CCC(=O)NC2=O)CCN1CC1CCN(C(=O)c2cc(F)c(C3CCN(Cc4cc5c(-c6ccc(N)nc6)ccnc5n4C)CC3)c(F)c2)CC1 (stereo partly drawn) [Example 3h24]", 0.15),
    ("Cc1cc(C(=O)N2CCC(CN3CCN(Cc4ccc5c(c4)n(C4CC4)c(=O)n5C4CCC(=O)NC4=O)C[C@@H]3C)CC2)cc(F)c1C1=CCN([C@@H](C)c2cc3c(-c4ccc(N)nc4)ccnc3n2C)CC1 (stereo partly drawn) [Example 3h15]", 0.04),
    ("C[C@H]1CN(Cc2ccc3c(c2)n(C2CC2)c(=O)n3C2CCC(=O)NC2=O)CCN1CC1CCN(C(=O)c2ccc(C3CCN([C@@H](C)c4cc5c(-c6ccc(N)nc6)ccnc5n4C)CC3)cc2)CC1 (stereo partly drawn) [Example 3e17]", -0.10),
]

* * *

TEST TARGET: UniProt:P42226
METHOD DESCRIPTION: STAT6 degrader assay (HiBiT, HeLa LgBiT clone 4.14)
Format: cell-based
RUN CONDITIONS: HeLa LgBiT clone 4.14, 4-24 h; read-out: STAT6 degradation Emax (%)
// reported Emax per item

# MOLECULE, Emax
data = [
    ("Cn1c(CN2CCC(c3ccc(C(=O)N4CCC(CN5CCN(Cc6cccc7c6n(C)c(=O)n7C6CCC(=O)NC6=O)CC5)CC4)cc3)CC2)cc2c(-c3ccc4[nH]ncc4c3)ccnc21 (stereo not drawn)", "50 to 60%"),
    ("Cn1c(CN2CCC(c3ccc(C(=O)N4CCC(CN5CCC(c6ccc7c(c6)n(C)c(=O)n7C6CCC(=O)NC6=O)CC5)CC4)cc3)CC2)cc2c(-c3ccc4[nH]ncc4c3)ccnc21 (stereo not drawn)", "50 to 60%"),
    ("C[C@H]1CN(Cc2ccc3c(c2)n(C2CC2)c(=O)n3C2CCC(=O)N(C)C2=O)CCN1CC1CCN(C(=O)c2ccc(C3CCN([C@@H](C)c4cc5c(-c6ccc(N)nc6)ccnc5n4C)CC3)cc2)CC1 (stereo partly drawn)", "20 to 30%"),
    ("CNc1ccc(-c2ccnc3c2cc(CN2CCC(c4c(F)cc(C(=O)N5CCC(CN6CCN(c7cc8c(cc7F)n(C7CCC(=O)NC7=O)c(=O)n8C)CC6)CC5)cc4F)CC2)n3C)cn1 (stereo not drawn)", "< 20%"),
    ("Cn1c(CN2CCC(c3ccc(C(=O)N4CCN(CC5CCN(Cc6ccc7c(c6)n(C)c(=O)n7C6CCC(=O)NC6=O)CC5)CC4)cc3)CC2)cc2c(-c3ccc4[nH]ncc4c3)ccnc21 (stereo not drawn)", "40 to 50%"),
    ("C[C@@H]1CN(Cc2ccc3c(c2)n(C)c(=O)n3C2CCC(=O)NC2=O)CCN1CC1CCN(C(=O)c2ccc(C3CCN(Cc4cc5c(-c6ccc(N)nc6)ccnc5n4C)CC3)cc2)CC1 (stereo partly drawn)", "50 to 60%"),
]

* * *

TEST TARGET: STAT6 (Homo sapiens (Human), UniProt P42226)
METHOD DESCRIPTION: STAT6 degrader assay (HiBiT, HeLa LgBiT clone 4.14)
Type: cell-based
RUN CONDITIONS: HeLa LgBiT clone 4.14, 4-24 h; geometric mean; given for compounds with >80% Emax; read-out: STAT6 degradation DC50
Experimental: This was a HiBit based assay. A HeLa cell line stably transfected with a small protein, LgBit (Large Bit) was obtained from Promega. These cells express endogenous STAT6. […] Single cell clones were prepared and the clone 4.14 was selected for the assay based on that clone showing high luminescence, high STAT6 phosphorylation upon stimulation with IL-4, and inhibition of luminescence when cells were treated with STAT6 siRNA. […]

# COMPOUND, DC50 [nM]
measured = [
    ("C[C@H]1CN(Cc2cc3c(cc2F)n(C2CCC(=O)NC2=O)c(=O)n3C2CC2)CCN1CC1CCN(C(=O)c2ccc(C3CCN([C@@H](C)c4cc5c(-c6ccc(N)nc6)ccnc5n4C)CC3)cc2)CC1 (stereo partly drawn)", 0.8),
    ("CN(C(=O)c1ccc(C2CCN(Cc3cc4c(-c5ccc(N)nc5)ccnc4n3C)CC2)cc1)c1ccc(C2CCN(Cc3ccc4c(c3)n(C)c(=O)n4C3CCC(=O)NC3=O)CC2(F)F)cc1 (stereo not drawn)", 0.8),
    ("CNc1ccc(-c2ccnc3c2cc([C@H](C)N2CCC(c4ccc(C(=O)N5CCC(CN6CCN(Cc7ccc8c(c7)n(C)c(=O)n8C7CCC(=O)NC7=O)C[C@@H]6C)CC5)cc4)CC2)n3C)cn1 (stereo partly drawn)", 0.8),
]

* * *

// reported pEC50 per item
System: eotaxin-3 release
METHOD DESCRIPTION: Human whole blood eotaxin-3 assay (IL-4 stimulated)
Assay type: cell-based
RUN CONDITIONS: human whole blood, IL-4 0.4 nM, 48 hours; geometric mean; given for compounds with >80% Emax; read-out: Eotaxin-3 EC50
pEC50: −log10 of the molar value.

# COMPOUND, pEC50
measured = [
    ("CNc1ccc(-c2ccnc3c2cc([C@H](C)N2CCC(c4ccc(C(=O)N5CCC(CN6CCN(Cc7ccc8c(c7)n(C7CC7)c(=O)n8[C@@H]7CCC(=O)NC7=O)C[C@@H]6C)CC5)cc4)CC2)n3C)cn1 (single isomer, unassigned) [Example 3h27]", 8.24),
    ("CNc1ccc(-c2ccnc3c2cc([C@H](C)N2CC=C(c4c(F)cc(C(=O)N5CCC(CN6CCN(Cc7ccc8c(c7)C7(CC7)C(=O)N8C7CCC(=O)NC7=O)C[C@@H]6C)CC5)cc4F)CC2)n3C)cn1 (stereo partly shown) [Example 3h36]", 8.08),
    ("C[C@H]1CN(Cc2ccc3c(c2)n(C)c(=O)n3[C@H]2CCC(=O)NC2=O)CCN1CC1CCN(C(=O)c2ccc(C3CCN([C@@H](C)c4cc5c(-c6ccc(N)nc6)ccnc5n4C)CC3)cc2)CC1 (single isomer, unassigned) [Example 3e46]", 9.10),
    ("C[C@@H](c1cc2c(-c3ccc(N)nc3)ccnc2n1C)N1CCC(c2ccc(C(=O)N3CCC(CN4CCN(Cc5cc6c(cc5Cl)n(C5CCC(=O)NC5=O)c(=O)n6C)CC4)CC3)cc2)CC1 (stereo partly shown) [Example 3e30]", 7.43),
    ("C[C@H]1CN(Cc2ccc3c(c2)n(C2CC2)c(=O)n3C2CCC(=O)NC2=O)CCN1CC1CCN(C(=O)c2ccc(C3CCN([C@@H](C)c4cc5c(-c6ccc(N)nc6)ccnc5n4C)CC3)cc2)CC1 (stereo partly shown) [Example 3e17]", 8.55),
    ("CC[C@H]1CN(Cc2ccc3c(c2)n(C)c(=O)n3[C@@H]2CCC(=O)NC2=O)CCN1CC1CCN(C(=O)c2ccc(C3CCN([C@@H](C)c4cc5c(-c6ccc(N)nc6)ccnc5n4C)CC3)cc2)CC1 (single isomer, unassigned) [Example 3e57]", 8.36),
    ("CC[C@H]1CN(Cc2ccc3c(c2)n(C)c(=O)n3C2CCC(=O)NC2=O)CCN1CC1CCN(C(=O)c2ccc(C3CCN([C@@H](C)c4cc5c(-c6ccc(N)nc6)ccnc5n4C)CC3)cc2)CC1 (stereo partly shown) [Example 3e23]", 8.38),
    ("C[C@H]1CN(Cc2ccc3c(c2)n(C)c(=O)n3C2CCC(=O)NC2=O)CCN1CC1CCN(C(=O)c2ccc(C3CCN([C@@H](C)c4cc5c(-c6cnc(N)c(F)c6)ccnc5n4C)CC3)cc2)CC1 (stereo partly shown) [Example 3e47]", 8.31),
    ("C[C@H]1CN(Cc2ccc3c(c2)n(C)c(=O)n3[C@@H]2CCC(=O)NC2=O)CCN1CC1CCN(C(=O)c2ccc(C3CCN(Cc4cc5c(-c6ccc(N)nc6)ccnc5n4C)CC3)cc2)CC1 (single isomer, unassigned) [Example 3e20]", 7.53),
    ("Cn1c(CN2CCC(c3ccc(C(=O)N4CCC(CN5CCN(Cc6cc7c(cc6F)n(C6CCC(=O)NC6=O)c(=O)n7C)CC5)CC4)cc3)CC2)cc2c(-c3ccc(N)nc3)ccnc21 (stereo not shown) [Example 3e15]", 6.87),
    ("C[C@@H](c1cc2c(-c3ccc(N)nc3)ccnc2n1C)N1CCC(c2ccc(C(=O)N3CCC(CN4CCN(Cc5cc6c(cc5F)n(C5CCC(=O)NC5=O)c(=O)n6C5CC5)CC4)CC3)cc2)CC1 (stereo partly shown) [Example 3e35]", 8.10),
    ("C[C@H]1CN(Cc2ccc3c(c2)C2(CC2)C(=O)N3C2CCC(=O)NC2=O)CCN1CC1CCN(C(=O)c2ccc(C3CCN([C@@H](C)c4cc5c(-c6ccc(N)nc6)ccnc5n4C)CC3)cc2)CC1 (stereo partly shown) [Example 3h29]", 8.59),
    ("C[C@H]1CN(Cc2ccc3c(c2)n(C)c(=O)n3C2CCC(=O)NC2=O)CCN1CC1CCN(C(=O)c2ccc(C3CCN([C@@H](C)c4cc5c(-c6ccc7[nH]c(=O)n(C)c7c6)ccnc5n4C)CC3)cc2)CC1 (stereo partly shown) [Example 3e37]", 8.85),
]
